Entries and their measured Bromegrass, Downy plant response rating follow.
system: downy brome; test: Test C pre-/postemergence test; assay type: in vivo, Bromus tectorum; settings: 125 g ai/ha, preemergence; scale 0 (no effect) to 100 (complete control)

compound | Bromegrass, Downy plant response rating
Cn1nc(C(F)(F)F)c(C(Cl)S(=O)(=O)c2cccc[n+]2[O-])c1OCC(F)(F)F (racemic) | 30
Cn1nc(C(F)(F)C(F)(F)F)c(C[S+]([O-])c2cccc[n+]2[O-])c1OCC(F)(F)F (centres unmarked) | 100
CCc1cc[n+]([O-])c(S(=O)(=O)Cc2c(C(F)(F)F)nn(C)c2OCC(F)(F)F)c1 | 55
Cn1nc(C(F)(F)F)c(C[S+]([O-])c2ccc(F)c[n+]2[O-])c1OCC(F)(F)F (centres unmarked) | 100
Cc1cc([S+]([O-])Cc2c(C(F)(F)F)nn(C)c2OCC(F)(F)F)[n+]([O-])cc1Cl (centres unmarked) | 100

* * *

test system: morningglory; test: Test A pre-/postemergence greenhouse test; type: in vivo, Ipomoea spp.; conditions: Postemergence, 125 g ai/ha; 0 to 100 scale where 0 is no effect and 100 is complete control
Entries and their measured Plant response rating, Morningglory follow.

compound | Plant response rating, Morningglory
Cn1nc(C(F)(F)F)c(C[S+]([O-])c2cccc[n+]2[O-])c1OCC(F)(F)C(F)(F)F (centres unmarked) [Compound 78] | 30
CC(Oc1c(C[S+]([O-])c2cccc[n+]2[O-])c(C(F)(F)F)nn1C)C(F)(F)F (centres unmarked) [Compound 77] | 70
Cn1nc(C(F)(F)F)c(C[S+]([O-])c2cccc[n+]2[O-])c1OCC(F)F (centres unmarked) [Compound 75] | 40
Cn1nc(C(F)(F)F)c(C[S+]([O-])c2ccc(F)c[n+]2[O-])c1OCC(F)(F)F (centres unmarked) [Compound 67] | 70
Cc1cc[n+]([O-])c(S(=O)(=O)Cc2c(C(F)(F)C(F)(F)F)nn(C)c2OCC(F)(F)F)c1 [Compound 99] | 40
Cn1nc(C(F)(F)F)c(C[S+]([O-])c2ccc(F)c[n+]2[O-])c1OC(F)F (centres unmarked) [Compound 58] | 70
Cc1cc([S+]([O-])Cc2c(C(F)(F)F)nn(C)c2OCC(F)(F)F)[n+]([O-])cc1Cl (centres unmarked) [Compound 70] | 30
Cc1cc[n+]([O-])c([S+]([O-])Cc2c(C(F)(F)F)nn(C)c2OCC(F)F)c1 (centres unmarked) [Compound 86] | 60

* * *

tested on: soybean; test: Test C pre-/postemergence test; type: in vivo, Glycine max; conditions: Preemergence, 31 g ai/ha; scale 0 to 100 (0 no effect, 100 complete control)
recorded_metric: Plant response rating, Soybean

compound | recorded_metric | result_number
Cn1nc(C(F)(F)F)c(CS(=O)(=O)c2ccc(Cl)c[n+]2[O-])c1OCC(F)(F)F | Plant response rating, Soybean | 0
Cn1nc(C(F)(F)F)c(C[S+]([O-])c2cc(Br)cc[n+]2[O-])c1Cl (racemic) | Plant response rating, Soybean | 0
Cn1nc(C(F)(F)C(F)(F)F)c(C[S+]([O-])c2cccc[n+]2[O-])c1OCC(F)(F)F (stereo not shown) | Plant response rating, Soybean | 60
CCc1cc[n+]([O-])c(S(=O)(=O)Cc2c(C(F)(F)F)nn(C)c2OC(F)F)c1 | Plant response rating, Soybean | 50
